# protocol.summary: amyloid nucleation score (Sup35N fusion, yeast selection) (log enrichment); library NNK3; higher = more nucleation; inactive = no reads after selection;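 also: zero at mode of non-aggregating sequences after 7 days selection at 30°C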
reported.endpoint: amyloid nucleation score

INSERT INTO results (substance, reported_endpoint, result) VALUES
  ('MFLGNVMTILIEMGFQKALT', 'amyloid nucleation score', 0.93),
  ('LNRANNGVVYQMGVRDFQSS', 'amyloid nucleation score', 'inactive'),
  ('HSRLFLGNVTCYWVHEVSLI', 'amyloid nucleation score', 'inactive'),
  ('GRVSYCITRME', 'amyloid nucleation score', 'inactive'),
  ('AISPNASTWTACTFYCMDSG', 'amyloid nucleation score', -0.027),
  ('PESFKGTQCVKFFYNCLLFK', 'amyloid nucleation score', 1.2),
  ('IKGFRGLLFEVSYHSPELGW', 'amyloid nucleation score', 'inactive'),
  ('SLRFISSLWV', 'amyloid nucleation score', 'inactive'),
  ('DCVNWTWHTTDNLVVTYSYN', 'amyloid nucleation score', 'inactive'),
  ('QMRTWSKIYICTKPFL', 'amyloid nucleation score', 1.07),
  ('FHMIECGVYAKHLGHCTRYI', 'amyloid nucleation score', -0.079),
  ('NISMVTSEDYMRDLLIFSTG', 'amyloid nucleation score', 'inactive'),
  ('CMMWNRGFT', 'amyloid nucleation score', 'inactive'),
  ('YVFDHDIGQ', 'amyloid nucleation score', 'inactive'),
  ('LSEVRLRRQLLVGACDGGYN', 'amyloid nucleation score', 'inactive'),
  ('SYGGYQFLYVNSDKLRV', 'amyloid nucleation score', 'inactive'),
  ('IREFSNI', 'amyloid nucleation score', 'inactive'),
  ('SCGLGLLAVVEKCVVTHRFF', 'amyloid nucleation score', 'inactive'),
  ('SQQRQVMPKRQSEKLYPSH', 'amyloid nucleation score', 'inactive'),
  ('TFSFILRSNLLYENRSVDRA', 'amyloid nucleation score', 1.57),
  ('CTLIAKHNQA', 'amyloid nucleation score', 'inactive'),
  ('SVIGTSTSFCLHWLWGWALC', 'amyloid nucleation score', 'inactive'),
  ('QSYVFVVLTPWVSRCGIGLA', 'amyloid nucleation score', 'inactive'),
  ('SSVKGTYIFIYDVVMLR', 'amyloid nucleation score', 'inactive'),
  ('FDLFFACFPSRETGLKSCKT', 'amyloid nucleation score', 'inactive'),
  ('YWFGWKGGRSVRRVSWSADW', 'amyloid nucleation score', 0.13),
  ('VGRSNH', 'amyloid nucleation score', 'inactive'),
  ('NSYFLSRTLLSTSGRRTCRM', 'amyloid nucleation score', 'inactive'),
  ('TGCPWIRTVNPVVPWVCEHR', 'amyloid nucleation score', 'inactive'),
  ('GRSRLQQVIHLAFTIKSVNG', 'amyloid nucleation score', 'inactive'),
  ('RACYLF', 'amyloid nucleation score', 'inactive'),
  ('GDDSSRHFNEFLYNRFAALW', 'amyloid nucleation score', 'inactive'),
  ('KHVNLWSVGWFLGFLVWSRA', 'amyloid nucleation score', 'inactive'),
  ('LRATNRGVMLNRFVSTMDKS', 'amyloid nucleation score', 'inactive'),
  ('IVCGISMIS', 'amyloid nucleation score', 'inactive'),
  ('KFLKLQVYASNGSSDPPRLD', 'amyloid nucleation score', 'inactive'),
  ('VICGCWIFFFYFLK', 'amyloid nucleation score', -0.354),
  ('YSRFDWVNLVIVGHYRTLFS', 'amyloid nucleation score', 'inactive'),
  ('TRYGNW', 'amyloid nucleation score', 'inactive'),
  ('SLRLSCVDVQVNN', 'amyloid nucleation score', -0.253),
  ('VEAMQVWDSSFMSCTNLFTS', 'amyloid nucleation score', 'inactive'),
  ('LYRCDDGCSIRTVRDYWWVS', 'amyloid nucleation score', 'inactive'),
  ('GFESPRGFSSVFSIVYGFWA', 'amyloid nucleation score', 0.855),
  ('WKGWSFNLLLRGILQAIIAS', 'amyloid nucleation score', 'inactive'),
  ('FRSNGSIWVRGSETFTIAP', 'amyloid nucleation score', 'inactive'),
  ('RPHRAWALAVRVASDVCQNS', 'amyloid nucleation score', 1.11),
  ('FLWVAANLDFVYDEREHIRG', 'amyloid nucleation score', 'inactive'),
  ('SRFFGGRYSVLS', 'amyloid nucleation score', 'inactive'),
  ('SRKGDMPLDIDSWTCTVAFF', 'amyloid nucleation score', 1.13),
  ('RMRLSWVMHSV', 'amyloid nucleation score', 'inactive'),
  ('ETYFAQWLNFL', 'amyloid nucleation score', 'inactive'),
  ('GWWRSFPLQFKSPVYLNRLC', 'amyloid nucleation score', 'inactive'),
  ('YQNIDYMKGYKVISKD', 'amyloid nucleation score', 'inactive'),
  ('WIRDFYEFAEWSSDTCGIRI', 'amyloid nucleation score', 'inactive'),
  ('VALDNCTFVLVAMQTDQD', 'amyloid nucleation score', 0.817),
  ('SSRINWSASLNSLTVTVD', 'amyloid nucleation score', 'inactive'),
  ('STRMRYICCSCLL', 'amyloid nucleation score', 2.99),
  ('LSSCMWDGPFFNCRVMKLSG', 'amyloid nucleation score', 'inactive'),
  ('ADNRHIFFIGFQRVLSFSWA', 'amyloid nucleation score', 1.25),
  ('LDLLMGV', 'amyloid nucleation score', 'inactive'),
  ('CLGADCVAHFSYFHA', 'amyloid nucleation score', 'inactive'),
  ('HSDMLDYVSMVFFMVIRAGM', 'amyloid nucleation score', 'inactive'),
  ('EFVRVLRDISLVSGVMGYHY', 'amyloid nucleation score', 'inactive'),
  ('LYVVCKLSHRPHNAWEKRVP', 'amyloid nucleation score', 0.315),
  ('CWTTINVSGCPNVGGGTVLQ', 'amyloid nucleation score', 0.9),
  ('LWLFIAY', 'amyloid nucleation score', 'inactive'),
  ('FVTYCVRQETV', 'amyloid nucleation score', 0.578),
  ('MGVICWYLRACNPQPGSNCK', 'amyloid nucleation score', 'inactive'),
  ('FSWSLSLLHIPYKQWRGRWV', 'amyloid nucleation score', 'inactive'),
  ('FWSFRPGHITLSIGHTRIAG', 'amyloid nucleation score', 'inactive'),
  ('LNVDNCAYVFSDDNFMTDVN', 'amyloid nucleation score', 'inactive'),
  ('EVFEWSVRLFSTL', 'amyloid nucleation score', 'inactive');

Source of measurements: the supplement of paper PMC12042874
